Measured on: T1, human CD137-Fc (human, biotin-labeled)
T1 construct: if 90 already holds the Fc, drop the second piece; also called biotin-labeled human CD137 fused to human IgG1 Fc fragment; biotin-human CD137-Fc; not shown: human IgG1 Fc fragment
Method: bead ELISA on biotin-human CD137-Fc, 125 vs 0 pmol free CD3e peptide;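 note: target captured on streptavidin-coated magnetic beads, signal read as fluorescence 2 min after adding APS-5 substrate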
Observation type: Signal decrease
Express the reported value numerically, then name its unit.

>  <Binder>
dBBDu197 (antibody, V domains shown, Human IgG1; light chain GLS3000 (kappa)) VH: QVQLVESGGGLVQPGRSLRLSCAASGFTFSNAWMHWVRQAPGKGLEWVAQIKDRSNAYAAYYAPSVKGRFTISRDDSKNSIYLQMNSLKTEDTAVYYCHYVHYASASTVLPAFGVDAWGQGTTVTVSS VL: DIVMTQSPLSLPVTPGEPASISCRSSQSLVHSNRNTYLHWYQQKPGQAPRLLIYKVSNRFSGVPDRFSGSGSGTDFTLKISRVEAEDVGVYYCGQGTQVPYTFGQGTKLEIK

>  <Signal decrease>
96.1%

$$$$

Hi! Can you tell me Signal decrease for each of these binders?
1. dBBDu205 (antibody, V domains shown, Human IgG1; light chain GLS3000 (kappa)) VH: QVQLVESGGGLVQPGRSLRLSCAASGFTFSNAWMHWVRQAPGKGLEWVAQIKDRSQLYAAYYAPSVKGRFTISRDDSKNSIYLQMNSLKTEDTAVYYCHYVHYASASTVLPAFGVDAWGQGTTVTVSS VL: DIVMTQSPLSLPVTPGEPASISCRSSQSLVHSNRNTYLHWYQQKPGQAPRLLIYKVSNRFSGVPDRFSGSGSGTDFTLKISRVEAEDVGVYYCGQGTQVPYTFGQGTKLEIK
2. dBBDu179 (antibody, V domains shown, Human IgG1; light chain GLS3000 (kappa)) VH: QVQLVESGGGLVQPGRSLRLSCAASGFTFSNAWMHWVRQAPGKGLEWVAQIKDRSNQYATYYAPSVKGRFTISRDDSKNSIYLQMNSLKTEDTAVYYCHYVHYASASTVLPAFGVDAWGQGTTVTVSS VL: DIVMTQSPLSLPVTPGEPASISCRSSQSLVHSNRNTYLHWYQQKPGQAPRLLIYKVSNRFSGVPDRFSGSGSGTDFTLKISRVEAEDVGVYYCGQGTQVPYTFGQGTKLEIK

Key:
["95.2%", "95.7%"]
